This section lists GI50 readings for MDA-MB-435.

1. C=CCCCCCCCCC(=O)[O][Sn]([CH2]CCC)([CH2]CCC)[CH2]CCC 0.153 µM
2. OCc1c[nH]c2ccccc12 19.8 µM
3. CS(=O)(=O)c1ccc([C@H]2O[C@@H](CO)C[C@]2(O)c2ccc(S(C)(=O)=O)cc2)cc1 > 100 µM
4. O=C(N/N=C/c1ccccc1O)c1ccccc1Nc1ccnc(C(F)(F)F)c1 1.37 µM

Would you kindly look at the next entry?
Exam item: Find GI50 for O=C1Nc2c(C(F)(F)F)cccc2[C@]1(c1ccc(O)cc1)c1ccc(OC(F)(F)F)cc1 on MDA-MB-435 and write it down.
Marked response: 13.6 µM

---

Tested on: M14 melanoma
experiment-description: NCI tumour cell line growth inhibition, 48 h
Entries and their TGI

Example cases with answers are listed next.
compound	measured-quantity	result
Nc1c(C(=O)c2ccc(Cl)cc2)[nH]c(NCc2ccccc2)c1C(=S)Nc1ccccc1	TGI	3.54 µM
COC(=O)c1c/c(=N\NC(=O)CC(=O)Nc2ccccc2OC)c2ccccc2o1	TGI	> 100 µM
COc1cc(/C=C\C(=O)O)ccc1OCc1ccccc1	TGI	> 100 µM
C=CCCCCCCCCC(=O)[O][Sn]([CH2]CCC)([CH2]CCC)[CH2]CCC	TGI	0.299 µM
COCC1OC(N2C(=O)NC(=O)[C@@H]3C=C4CCCCC4=C[C@@H]32)C(OC)C1OC (stereo partly specified)	TGI	> 100 µM
CCOC(=O)/C(C#N)=N\Nc1ccc(-n2c(C)nc3ccccc3c2=O)cc1	TGI	> 100 µM

Would you kindly look at the next entry?
Exam item: Determine from records and report TGI for CC[CH2][Sn]([CH2]CC)([O]C(=O)c1cccnc1SC)[O][Sn]([CH2]CC)([CH2]CC)[O]C(=O)c1cccnc1SC
Marked response: 1.38 µM

---

Tested on: CAKI-1 renal
experiment-description: NCI tumour cell line growth inhibition, 48 h
Entries and their TGI

molecule	TGI
O=C(c1ccccc1)c1nnc(C(=O)c2ccccc2)nn1	> 344 µM

Exam item: Determine from records and report TGI for O=C1CSC(c2cccs2)N1c1nc2cc3sc(N4C(=O)CSC4c4cccs4)nc3cc2s1 (stereo not given)
Marked response: > 50 µM

Exam item: Determine from records and report TGI for Brc1cccc(C=NC23CC4CC(CC(C4)C2)C3)c1
Marked response: > 100 µM

Exam item: Determine from records and report TGI for N#Cc1ccc(NC(=O)Nc2ccc(Oc3ccc(NC(=O)Nc4ccc(C#N)cc4)cc3)cc2)cc1
Marked response: > 100 µM

Exam item: Determine from records and report TGI for Cn1c(=O)c2[nH]c(SCc3ccccn3)nc2n(C)c1=S
Marked response: > 100 µM

---

Tested on: BT-549 breast
experiment-description: NCI tumour cell line growth inhibition, 48 h
Entries and their TGI
Please reply with the bare figure in µM and do not write the unit itself.

Example cases with answers are listed next.
chemical-smiles	measurement-target	TGI (µM)
CC1=CC(=Nc2ccc(N(CCCl)CCCl)cc2)C=C(C)C1=O	BT-549 breast	3.16
CCOc1cc2c(Cl)ncnc2c(OCC)c1OCC	BT-549 breast	14.5

Would you kindly look at the next entry?
Exam item: Determine from records and report TGI for O=C1C=C(c2ccccc2)O/C1=C/C(=O)c1ccc(Cl)cc1
Marked response: 30.1

---

Test system: IGROV1 ovarian
experiment-description: NCI tumour cell line growth inhibition, 48 h
criterion met means recorded TGI is 30 µM or above; criterion not met means it is below 30 µM.

molecule	class-label
CCCCN=C(NC#N)NCCCC	criterion met
CCC[CH2][Sn]1([CH2]CCC)[O]Cc2nc(C)ccc2[O]1	criterion not met
Cn1c([O-])nc(-n2cc[n+](C)c2)cc1=O	criterion met
Cn1c2ccccc2c2c(-c3ccccc3)[n+]3ccncc3nc21	criterion met
CCOc1cc(-c2nc3ccccn3c2/N=C/c2cc(Br)ccc2O)ccc1O	criterion met

Exam item: Given Cc1nc(C)c(Cc2ccccc2)o1 , state whether its TGI is at least 30 µM.
Marked response: criterion met

Exam item: Given C=CC(=O)N1CC2(CCN(c3nc(OC4CCN(CCCOC)CC4)nc4c(OCC(F)(F)F)c(-c5c(C)ccc6[nH]ncc56)c(C5CC5)cc34)CC2)C1 , state whether its TGI is at least 30 µM.
Marked response: criterion not met

Exam item: Given N#Cc1c(-c2ccc(F)cc2)nc(N/N=C/c2c[nH]c3ccccc23)nc1N1CCOCC1 , state whether its TGI is at least 30 µM.
Marked response: criterion met

Exam item: Given CC(C)C(=O)NC(=S)Nc1ccc([N+](=O)[O-])cc1C#N , state whether its TGI is at least 30 µM.
Marked response: criterion met

Exam item: Given COc1ccc(C2=CC3CCC2C3)cc1 (stereo unspecified) , state whether its TGI is at least 30 µM.
Marked response: criterion met

Exam item: Given COc1cc(I)c2c3c1OC1C34CCN(C)C(C2)C4=CC(I)C1(OC)OC (stereo unspecified) , state whether its TGI is at least 30 µM.
Marked response: criterion met

---

Tested on: NCI-H460 lung
measured-quantity: GI50

Example cases with answers are listed next.
1. Oc1ccc(CN2CCC(N3CCCCC3)CC2)c2cccnc12 4.01 µM
2. O=C1c2cc(Cl)ccc2S(=O)(=O)c2c(NCCCNCCO)nc3ccccc3c21 2.02 µM

Would you kindly look at the next entry?
Exam item: Find GI50 for Oc1ccc(NCc2nc3ccccc3[nH]2)cc1 on NCI-H460 lung and write it down.
Marked response: 41.9 µM

---

Tested on: NCI-H226 lung
experiment-description: NCI tumour cell line growth inhibition, 48 h
measured-quantity: TGI

Exam item: Find TGI for COCC1OC(N2C(=O)NC(=O)[C@@H]3C=C4CCCCC4=C[C@@H]32)C(OC)C1OC (some centres undefined) on NCI-H226 lung and write it down.
Marked response: > 100 µM

Exam item: Find TGI for CC(C)(C)C1CCC2(CC1)c1[nH]c3ccccc3c1C1(CCC(C(C)(C)C)CC1)c1[nH]c3ccccc3c12 (centres undefined) on NCI-H226 lung and write it down.
Marked response: > 100 µM

Exam item: Find TGI for CCCn1cnc2c(SCc3ccccc3Cl)nc(N)nc21 on NCI-H226 lung and write it down.
Marked response: > 100 µM

---

Tested on: HOP-62 NSCLC
experiment-description: NCI tumour cell line growth inhibition, 48 h; in the data active = GI50 below about 0.43 µM; inactive = the rest
Form entry, call: pick from true (1) for active, false (0) for inactive

Example cases with answers are listed next.
molecule	measurement-target	class-label
OCC(O)CC[CH2][Sn]([Br])([c]1ccccc1)[c]1ccccc1 (configuration not stated)	HOP-62 NSCLC	false (0)
Oc1ccc(NCc2nc3ccccc3[nH]2)cc1	HOP-62 NSCLC	false (0)

Exam item: Entry [Cl-].[Dy+3].[O-]/N=C(\c1ccccc1)c1ccccn1.[O-]/N=C(\c1ccccc1)c1ccccn1.[O-]/N=C(\c1ccccc1)c1ccccn1 : call = ?
Marked response: false (0)

---

Tested on: 786-0 renal
experiment-description: NCI tumour cell line growth inhibition, 48 h
measured-quantity: TGI

compound	result
CC(=O)OCCN1c2ccccc2Sc2cnccc21	> 10 µM
Brc1cc2nn(-c3ccccc3)nc2c2nonc12	> 100 µM
CC1(C(=O)O)CCCC1C(=O)O (stereo not given)	> 100 µM

Exam item: Determine from records and report TGI for CNC(=O)N(CCC#N)[C@H]1CCCC[C@@H]1N(C(=O)NC)c1ccccc1
Marked response: > 100 µM

Exam item: Determine from records and report TGI for COc1ccc(/C=C/c2nccc3ccccc23)cc1OC
Marked response: > 10 µM

---

System: OVCAR-8 ovarian
experiment-description: NCI tumour cell line growth inhibition, 48 h
Entries and their TGI

Example cases with answers are listed next.
molecule	TGI
c1ccc(/C(=N/Nc2ccccn2)c2ncccn2)cc1	3.43 µM
C/C(CC(=O)Nc1ccc(C)cc1C)=N/N=C(N)N	> 100 µM
O=c1[nH]ncc(Br)c1Br	10.8 µM
COCc1nc2c(OC)cc(-c3nc4ccc(N5CCN(C)CC5)cc4[nH]3)c(OC)c2[nH]1	> 100 µM
Cc1c2ncccc2cc2oc3ccccc3c(=O)c12	> 100 µM
CN1CCN(C(=O)OCc2nc3c(N4CCOCC4)nc(Cl)nc3n2C)CC1	5.68 µM

Exam item: Determine from records and report TGI for Oc1ccc(NCc2nc3ccccc3[nH]2)cc1
Marked response: > 100 µM

Exam item: Determine from records and report TGI for COc1cc(I)c2c3c1OC1C34CCN(C)C(C2)C4=CC(I)C1(OC)OC (configuration not stated)
Marked response: 53 µM

Exam item: Determine from records and report TGI for CCCCN=C(NC#N)NCCCC
Marked response: > 100 µM

Exam item: Determine from records and report TGI for CC(=S)N=Cc1c(O)cc(C)oc1=O
Marked response: > 100 µM

Exam item: Determine from records and report TGI for [Cl-].[Dy+3].[O-]/N=C(\c1ccccc1)c1ccccn1.[O-]/N=C(\c1ccccc1)c1ccccn1.[O-]/N=C(\c1ccccc1)c1ccccn1
Marked response: > 100 µM

Exam item: Determine from records and report TGI for CCOC(=O)C(NC(=O)CC(C)C)(N1CCN(c2cc3c(cc2F)c(=O)c(C(=O)O)cn3C2CC2)CC1)C(F)(F)F (configuration not stated)
Marked response: > 100 µM

Data origin, for the record: PubChem BioAssay (NCI)
